- Experiment description: Cytotoxicity activity against human HepG2 cells assessed by CellTiter-Glo luminescent cell viability assay.
- Type: toxicity, cell-based
- Design: assay stage confirmatory assay, source tissue liver
- Protocol conditions: HepG2 cells, read-out: IC50 relative
Active and inactive are the calls of the source. No rule for the calls is given here.
Your answer must be one of the following: true (1) for active, false (0) for inactive

Answered cases to consult:
{"columns": ["Chemical structure", "Assigned class"],
 "data": [
  ["COc1ccc2[nH]c(NC(=O)[C@@H]3CCCC(=O)N3)cc2c1", "true (1)"],
  ["CC(C)[C@H](CO)Nc1nc(Nc2cccc(Cl)c2)c2ncn(C(C)C)c2n1", "true (1)"],
  ["CCCCc1cc(=O)oc2c(C)c(OCC(=O)NCCN(C)C)ccc12", "false (0)"]
]}

Prompt line: Recorded test outcome, item O=C(Nc1nccs1)c1cccc(S(=O)(=O)N2CCc3ccccc32)c1
Response line: true (1)

Prompt line: Likewise for Cc1cc(-c2cc(O)ccc2Cl)cc2nnc(Nc3ccc(OCCN4CCCC4)cc3)nc12 ?
Response line: true (1)

Prompt line: Likewise for CNC(=O)c1ccccc1Nc1nc(Nc2ccc3c(c2OC)CCC[C@H](N2CCN(CCO)CC2)C3)ncc1Cl ?
Response line: true (1)

Prompt line: Likewise for Cn1c(N2CCN(Cc3ccccc3)CC2)nc2c1c(=O)n(Cc1ccccc1)c(=O)n2C ?
Response line: false (0)

Prompt line: Likewise for CC(C)C[C@H](NC(=O)CNC(=O)c1cc(Cl)ccc1Cl)B(O)O ?
Response line: true (1)

Prompt line: Likewise for CCN(Cc1ccc(OC)cc1)Cc1nc2c(F)cccc2[nH]1 ?
Response line: true (1)

Prompt line: Likewise for COc1cc(/C=C/C(=O)CC(=O)/C=C/c2ccc(O)cc2)ccc1O ?
Response line: true (1)

----------
- Experiment description: Cytotoxicity activity against human HepG2 cells assessed by CellTiter-Glo luminescent cell viability assay.
- Format: toxicity, cell-based
- Parameters: assay stage confirmatory assay, source tissue liver
- Protocol conditions: HepG2 cells, read-out: IC50 relative
Where a name gives a salt, the structure may show the parent alone. Activity calls are given as the source filed them. The rule behind the calls is not given here.
Your answer must be one of the following: Yes = active, No = inactive

Answered cases to consult:
{"columns": ["Molecule", "Assigned class"],
 "data": [
  ["Cc1ccc(C)c(C(=O)CN2C3=NCCCN3c3ccccc32)c1", "Yes"],
  ["CCC[C@]1(C)NC(=O)N(Cc2cc(-c3ccccc3)on2)C1=O", "Yes"],
  ["c1cc(-c2cnn3cc(-c4ccc(N5CCNCC5)cc4)cnc23)c2cccnc2c1", "Yes"],
  ["Cc1csc(-c2nnc(Nc3ccc(Oc4ncccc4-c4ccnc(N)n4)cc3)c3ccccc23)c1", "No"]
]}

Prompt line: Recorded test outcome, item Fc1ccc(CNc2ncnc3ccc(F)cc23)cc1
Response line: Yes

Prompt line: Likewise for C[C@@H](OC[C@@]1(c2ccccc2)CC[C@]2(CCC(=O)N2)CN1)c1cc(C(F)(F)F)cc(C(F)(F)F)c1 ?
Response line: Yes

Prompt line: Likewise for Cc1ccc(O)c([C@H](CCN(C(C)C)C(C)C)c2ccccc2)c1 [TOLTERODINE TARTRATE] ?
Response line: Yes

Prompt line: Likewise for CCCCc1cc(NC(=O)[C@H]2CC(=O)N(Cc3ccccc3)C2)[nH]n1 ?
Response line: Yes

Prompt line: Likewise for c1ccc(-c2ccc(CNC3CN4CCC3CC4)cc2)cc1 (stereo not given) ?
Response line: Yes

Prompt line: Likewise for CCCCNc1ncc(C(=O)NCc2ccc(-n3ccnc3)cc2)c(N[C@H]2CC[C@H](O)CC2)n1 ?
Response line: Yes

FYI, the data here is from ChEMBL document CHEMBL5303711.
